- System: P. falciparum 3D7 growth, pLDH absorbance
- PROTOCOL DETAILS: blood-stage malaria parasite growth potency – strain 3D7, dose response (AID 2305)
Property: pIC50; scope: individual molecules
To interpret pIC50, take it as minus log10 of a concentration measured in moles per litre.

Known results for molecules:
Fc1ccc(Nc2ccnc3cc(-c4ccc(CNCCN5CCOCC5)o4)ccc23)c(Cl)c1	6.72
CCCN(CCC)C(=O)c1cc(-c2cccc(C)c2)nc2ccccc12	5.97
CN(C)CCCNCCS(=O)(=O)c1cccc(Nc2ccc(-c3cccc(N(C)C)c3)cn2)c1	6.07
NC(=O)c1cc2nc(Nc3ccc(F)cc3)nc(Nc3ccc(S(N)(=O)=O)cc3)c2[nH]1	6.10
O=C(Nc1cccc(CN2CCN(Cc3ccc(O)cc3)CC2)c1)c1cc2ccccc2s1	6.17
CCCCCn1c(Sc2ccc(C#N)c([N+](=O)[O-])c2)nnc1-c1cc(OC)cc(OC)c1	6.02
C=CCc1cc(Cc2cnc(N)nc2N)c2ccc(C)nc2c1OC	6.16
CCN(CC)c1ccc(C(c2ccc(N(CC)CC)cc2)c2ccc([N+](=O)[O-])cc2)cc1	6.02

Lookup: Specify the recorded pIC50 for `COc1ccc2ncc(F)c([C@H](O)CN3CCC(NCc4ccc5c(c4)NC(=O)CO5)CC3)c2c1` , system: P. falciparum 3D7 growth, pLDH absorbance.
Found: 6.77
